assay: Plasma concentration in BALB/c mouse at 100 mg/kg, po measured after 6 hrs by HPLC-MS/MS analysis; assay type: ADME, organism-based
quantityName: concentration at 6 h (ng/mL)
Expressed in ng/mL, but write only the number.

In plain terms, `Cc1nc(NCc2c(F)cccc2F)c2c(-c3ccnc(N)c3)c[nH]c2n1` has a documented concentration at 6 h of 15200

###

experiment: Metabolic stability in CD-1 mouse liver microsome preincubated for 10 mins by HPLC-MS/MS analysis; assay type: ADME; conditions: liver microsomes, read-out: Stability
quantityName: CLint scaled (mL/min/kg)
Write it as a number; the unit mL/min/kg goes unstated.

Cc1nc(NCc2ncccc2F)c2c(-c3ccnc(N)c3)c[nH]c2n1 ... 100
Cc1nc(-c2ccc3c(c2)OCO3)c2c(-c3ccnc(N)c3)c[nH]c2n1 ... 89
Cc1nc(NCc2c(F)cccc2F)c2c(-c3ccnc(N)c3)c[nH]c2n1 ... 124

Here's the next entry for you.
The reported value for `Cc1nc(NCc2c(F)cccc2F)c2c(-c3ccnc(N)n3)c[nH]c2n1` in terms of CLint scaled is 100
